Listing of recorded log10 S [M] by entry.
- TEST_METHOD_NOTES: Drug solubility in medium-chain triglycerides (MCT, Miglyol 812 N); SORESOS 96-well assay, miniaturized shake-flask or literature
- STUDY_CONDITIONS: decadic logarithm of molar solubility in MCTs (Miglyol 812 N), 24 h at room temperature; no literature source given
- Description: The excipient complies with the quality specifications of the European Pharmacopoeia. The solvents used for the ultra-performance liquid chromatography (UPLC) quantification were of UPLC grade. (b) employing a miniaturized version of the shake-flask method in 2 mL glass vials,[33] or (c) collecting data from the literature.[12],[34] Each of the employed assays involved residual solid-state screenings by powder X-ray diffraction to identify potential solid-state changes during solubility screenings.
Entry rule: numbers only, all in M.

Study these solved cases before continuing.
{"MOLECULE": "CC(C)(C)NC(=O)[C@@H]1C[C@@H]2CCCC[C@@H]2CN1C[C@@H](O)[C@H](Cc1ccccc1)NC(=O)[C@H](CC(N)=O)NC(=O)c1ccc2ccccc2n1", "log10 S [M] (M)": -3.11}
{"MOLECULE": "OC(Cn1cncn1)(Cn1cncn1)c1ccc(F)cc1F", "log10 S [M] (M)": -2.19}
{"MOLECULE": "COc1ccc(N2CCOCC2)c2sc(NC(=O)N3CC[S+]([O-])CC3)nc12", "log10 S [M] (M)": -4.84}
{"MOLECULE": "Cc1onc(-c2ccc(F)cc2)c1COc1ccc(C(=O)N2CCS(=O)(=O)CC2)cn1", "log10 S [M] (M)": -2.53}
{"MOLECULE": "Cc1cc(-n2c(=O)[nH]c(=O)n(C)c2=O)ccc1Oc1ccc(SC(F)(F)F)cc1", "log10 S [M] (M)": -2.35}
{"MOLECULE": "C[C@@H](O[C@H]1OCCN(Cc2n[nH]c(=O)[nH]2)[C@H]1c1ccc(F)cc1)c1cc(C(F)(F)F)cc(C(F)(F)F)c1 [aprepitant]", "log10 S [M] (M)": -3.40}
{"MOLECULE": "Cc1cc(F)ccc1-c1cc(N2CCS(=O)(=O)CC2)ncc1N(C)C(=O)C(C)(C)c1cc(C(F)(F)F)cc(C(F)(F)F)c1", "log10 S [M] (M)": -2.03}
{"MOLECULE": "CC[C@@H]([C@H](C)O)n1ncn(-c2ccc(N3CCN(c4ccc(OC[C@@H]5CO[C@@](Cn6cncn6)(c6ccc(F)cc6F)C5)cc4)CC3)cc2)c1=O", "log10 S [M] (M)": -3.55}
{"MOLECULE": "COc1ccc(N2CCOCC2)c2sc(NC(=O)N(C)[C@@H]3C[C@H]4CC[C@@H]3O4)nc12", "log10 S [M] (M)": -2.04}
{"MOLECULE": "Cn1c(=O)c2[nH]cnc2n(C)c1=O", "log10 S [M] (M)": -2.92}

Request the reported log10 S [M] associated with "COc1ccc(N2CCOCC2)c2sc(NC(=O)c3ccc(C(F)(F)F)cc3)nc12" -1.93

Request the reported log10 S [M] associated with "O=C(OCc1ccc(OC(F)(F)F)cc1)N1C[C@@H]2CN(C(=O)c3ccc4n[nH]nc4c3)C[C@@H]2C1" -3.50

Request the reported log10 S [M] associated with "COc1ccc(N2CCOCC2)c2sc(NC(=O)N3CCC(C)(O)CC3)nc12" -3.40

Request the reported log10 S [M] associated with "CN(C(=O)c1ncc(C#Cc2cccc(F)c2)cn1)C(C)(C)C" -1.40

Request the reported log10 S [M] associated with "CCn1c(=O)c2c(nc(/C=C/c3ccc(OC)c(OC)c3)n2C)n(CC)c1=O" -2.46

Request the reported log10 S [M] associated with "Cc1c(Cl)cccc1Nc1ccccc1C(=O)O" -1.65

Request the reported log10 S [M] associated with "CC[C@H](C)C(=O)O[C@H]1C[C@@H](C)C=C2C=C[C@H](C)[C@H](CC[C@@H]3C[C@@H](O)CC(=O)O3)[C@H]21" -2.45

Request the reported log10 S [M] associated with "O=C1CCc2cc(OCCCCc3nnnn3C3CCCCC3)ccc2N1" -3.68

----------
- TEST_METHOD_NOTES: Drug solubility in medium-chain triglycerides (MCT, Miglyol 812 N); SORESOS 96-well assay, miniaturized shake-flask or literature
- STUDY_CONDITIONS: decadic logarithm of molar solubility in MCTs (Miglyol 812 N), 24 h at room temperature; no literature source given
- Description: The excipient complies with the quality specifications of the European Pharmacopoeia. The solvents used for the ultra-performance liquid chromatography (UPLC) quantification were of UPLC grade. (b) employing a miniaturized version of the shake-flask method in 2 mL glass vials,[33] or (c) collecting data from the literature.[12],[34] Each of the employed assays involved residual solid-state screenings by powder X-ray diffraction to identify potential solid-state changes during solubility screenings.
Listing of recorded log10 S [M] by entry.
Entry rule: numbers only, all in M.

Request the reported log10 S [M] associated with "CCOC(=O)N1CCC(=C2c3ccc(Cl)cc3CCc3cccnc32)CC1" -1.21

----------
- TEST_METHOD_NOTES: Drug solubility in medium-chain triglycerides (MCT, Miglyol 812 N); SORESOS 96-well assay, miniaturized shake-flask or literature
- STUDY_CONDITIONS: decadic logarithm of molar solubility in MCTs (Miglyol 812 N), 24 h at room temperature; no literature source given
Listing of recorded log10 S [M] by entry.
Entry rule: numbers only, all in M.

Study these solved cases before continuing.
{"COMPOUND": "COc1cc2ncnc(Nc3ccc(F)c(Cl)c3)c2cc1OCCCN1CCOCC1 [gefitinib]", "UNIT_ANNOTATION": "M", "VALUE_OBSERVED": -3.09}
{"COMPOUND": "CCC(CC)CC1(C(=O)Nc2ccccc2SC(=O)C(C)C)CCCCC1 [RO4607381]", "UNIT_ANNOTATION": "M", "VALUE_OBSERVED": -0.41}

Request the reported log10 S [M] associated with CC(C)C(=O)Nc1ccc([N+](=O)[O-])c(C(F)(F)F)c1 [flutamide] -0.97

Request the reported log10 S [M] associated with C#Cc1cccc(Nc2ncnc3cc(OCCOC)c(OCCOC)cc23)c1 [erlotinib] -2.70

Request the reported log10 S [M] associated with Cc1cc(N(C)Cc2sc(-c3ccc(C(F)(F)F)cc3)nc2C)ccc1OCC(=O)O [RO4632615] -2.28

Request the reported log10 S [M] associated with CN(C)CCCN1c2ccccc2Sc2ccc(Cl)cc21 [chlorpromazine] -0.17

----------
- TEST_METHOD_NOTES: Drug solubility in medium-chain triglycerides (MCT, Miglyol 812 N); SORESOS 96-well assay, miniaturized shake-flask or literature
- STUDY_CONDITIONS: decadic logarithm of molar solubility in MCTs (Miglyol 812 N), 24 h at room temperature; no literature source given
Class (by log10 S [M]) -- low bin: < -3 M; mid bin: ≥ -3 M and < -1 M; high bin: ≥ -1 M

Some solved entries appear below for comparison.
{"COMPOUND": "Cc1cc(C#Cc2cn(-c3ccc(F)cc3)c(C)n2)ccn1 [RO4582939]", "DISCRETE_LABEL": "mid bin"}
{"COMPOUND": "CN(C)C(=O)Cc1c(C(=O)O)n(Cc2cccc3ccccc23)c2ccc(F)cc12 [RO5066852]", "DISCRETE_LABEL": "low bin"}
{"COMPOUND": "O=C1Nc2ccc(Cl)cc2[C@@](C#CC2CC2)(C(F)(F)F)O1 [efavirenz]", "DISCRETE_LABEL": "high bin"}
{"COMPOUND": "CC1(C)CCC(C)(C)c2cc(Cn3cccn3)c(/C=C/c3ccc(C(=O)O)cc3)cc21 [palovarotene]", "DISCRETE_LABEL": "low bin"}
{"COMPOUND": "CC(C)(Oc1ccc(Cl)cc1)C(=O)O [clofibric acid]", "DISCRETE_LABEL": "high bin"}
{"COMPOUND": "CN1CCN(c2ccc(C(=O)Nc3n[nH]c4ccc(Cc5cc(F)cc(F)c5)cc34)c(NC3CCOCC3)c2)CC1 [RO7102122]", "DISCRETE_LABEL": "mid bin"}
{"COMPOUND": "OC(c1cc(C(F)(F)F)nc2c(C(F)(F)F)cccc12)C1CCCCN1 (stereo not drawn) [mefloquine]", "DISCRETE_LABEL": "mid bin"}

Moving on to another compound below.
Note: place this compound into its band. Item: Cc1cccc(C#Cc2cn(-c3cnn(C)c(=O)c3)c(C)n2)c1 [RO5372709] mid bin

----------
- TEST_METHOD_NOTES: Drug solubility in medium-chain triglycerides (MCT, Miglyol 812 N); SORESOS 96-well assay, miniaturized shake-flask or literature
- STUDY_CONDITIONS: decadic logarithm of molar solubility in MCTs (Miglyol 812 N), 24 h at room temperature; no literature source given
MEASURE: log10 S [M]
State the value with its unit after it.

{"COMPOUND": "CC(C)(C)c1ccc(C(O)CCCN2CCC(C(O)(c3ccccc3)c3ccccc3)CC2)cc1 (centres unmarked) [terfenadine]", "log10 S [M]": "-2.05 M"}
{"COMPOUND": "COc1ccc(C)cc1S(=O)(=O)N1CCCc2ccc(C(=O)Nc3ccc(C(=O)O)c(F)c3)cc21 [RO5033672]", "log10 S [M]": "-4.19 M"}
{"COMPOUND": "C[C@@H](c1ncncc1F)[C@](O)(Cn1cncn1)c1ccc(F)cc1F [voriconazole]", "log10 S [M]": "-1.45 M"}
{"COMPOUND": "CCCS(=O)(=O)Nc1ccc(F)c(C(=O)c2c[nH]c3ncc(-c4ccc(Cl)cc4)cc23)c1F [RO5185426]", "log10 S [M]": "-3.06 M"}
{"COMPOUND": "COc1ccc(N2CCOCC2)c2sc(NC(=O)c3ccc(F)cc3)nc12 [RO0716689]", "log10 S [M]": "-2.41 M"}
{"COMPOUND": "COc1cc(C(F)(F)F)cc(SC)c1C(=O)N[C@@]1(c2ccccc2)C[C@@H](OC)CN(C)C1 [RO5469299]", "log10 S [M]": "-1.78 M"}
{"COMPOUND": "CNC(=O)c1ccc(N2C(=S)N(c3ccc(C#N)c(C(F)(F)F)c3)C(=O)C2(C)C)cc1F [enzalutamide]", "log10 S [M]": "-2.36 M"}
{"COMPOUND": "COc1ccc(-c2ccccc2)c2sc(NC(=O)c3ccc(F)cc3)nc12 [RO0691911]", "log10 S [M]": "-1.71 M"}
{"COMPOUND": "Cc1ccc(-c2noc(C)c2COc2ccc(C(=O)NC3CCOCC3)nn2)cn1 [RO7017773]", "log10 S [M]": "-2.24 M"}
{"COMPOUND": "COc1cc(C(=O)Nc2nc3c(OC)ccc([C@H]4COCCO4)c3s2)ccn1 [RO4545823]", "log10 S [M]": "-2.38 M"}

Request the reported log10 S [M] associated with CC(C)(C)c1ccc(CN(CCc2ccc(F)c(C(F)(F)F)c2)C(=O)c2c(F)c(Cl)cc3cc[nH]c23)cc1 [RO4920915] -1.47 M

Request the reported log10 S [M] associated with O=C(N[C@@H]1CCCC[C@H]1O)c1cnc(OCC(F)(F)F)c(-c2ccc(Cl)c(Cl)c2)c1 [RO5267683] -2.34 M

Request the reported log10 S [M] associated with CN1C(=O)N(c2ccc(C#Cc3ccccc3)cn2)[C@@H]2CCC[C@H]21 [RO6805600] -1.07 M

Request the reported log10 S [M] associated with O=C(CCc1ccc(OC(F)(F)F)cc1)N1C[C@@H]2CN(C(=O)c3ccc4[nH]nnc4c3)C[C@@H]2C1 [RO6888975] -4.07 M

Request the reported log10 S [M] associated with CC(C(=O)O)c1ccc2c(c1)[nH]c1ccc(Cl)cc12 (centres unmarked) [carprofen] -1.29 M

Request the reported log10 S [M] associated with CC(C)(C)c1ccc(CN(CCc2cccc(C(F)(F)F)c2)C(=O)c2c(F)c(Cl)cc3cc[nH]c23)cc1 [RO4920902] -1.55 M

Request the reported log10 S [M] associated with CN(C(=O)C(C)(C)c1cc(C(F)(F)F)cc(C(F)(F)F)c1)c1cnc(N2CCOCC2)cc1-c1ccccc1Cl [RO0676789] -1.07 M

Request the reported log10 S [M] associated with Clc1ccc(COC(Cn2ccnc2)c2ccc(Cl)cc2Cl)c(Cl)c1 (centres unmarked) [miconazole] -0.86 M

Request the reported log10 S [M] associated with CC(C)/N=c1\cc2n(-c3ccc(Cl)cc3)c3ccccc3nc-2cc1Nc1ccc(Cl)cc1 [clofazimine] -1.65 M
